- Tested on: M. tuberculosis H37Rv growth inhibition, no glycerol
- Measurement description: Mycobacterium tuberculosis H37Rv growth inhibition, absence of glycerol, confirmatory assay (AID 504564)
- Study conditions: 90% growth inhibition concentration
Measurement name: IC90 (µM)
Please state the figure in µM; there is no need to write the unit.

The reported IC90 of the compound `CCOC(=O)COc1ccc(/C=C2\NC(=S)N(CC)C2=O)cc1` was 4.46

compound `Cc1cc(Br)ccc1NC(=O)c1cnc(N2CCN(c3ccccn3)CC2)c2ccccc12` , IC90 observed: 2.54

GET /value?item= `CNc1nc(SCc2ccccc2Cl)nc2c1CCCC2` &field=IC90 returns 1.06

* * *

- Test system: M. tuberculosis H37Rv growth inhibition, no glycerol
- Measurement description: Mycobacterium tuberculosis H37Rv growth inhibition, absence of glycerol, confirmatory assay (AID 504564)
- Study conditions: 90% growth inhibition concentration
Where a SMILES comes first, the peptide text is derived from it.
Measurement name: IC90 (nM)
Write the answer as a number in nM, unit excluded.

In the examples that follow, each entry is paired with its recorded IC90.
Cc1ccc2ccc3ccc(C)nc3c2n1 ... 450
O=C(/C=C/c1ccccc1)N1CCN(CCN2C(=O)c3cccc4cccc(c34)C2=O)CC1 ... 4020
CC[N+](C)(CC)CCCCOc1ccc2c(c1)C(=O)c1cc(OCCCC[N+](C)(CC)CC)ccc1-2 ... 1200
COC(=O)c1cc(=O)n(-c2ccc(F)cc2)c(=Nc2ccc(F)cc2)s1 ... 1100
CCOC(=O)CNC(=O)[C@H](Cc1ccccc1)NC(=O)OCc1ccccc1 (HELM PEPTIDE1{[O=C(OCc1ccccc1)[*:2]].F.G.[CCO[*:1]]}$$$$V2.0) ... 2500
COC(=O)C(C)Oc1ccc(-c2nccc(-c3ccccn3)n2)cc1 (stereo not given) ... 4320
Cc1ccc(C(=O)N/N=C(/CC(=O)c2cccs2)C(F)(F)F)cc1 ... 890
Cc1nn2c(NCc3ccccn3)cc(C(C)C)nc2c1-c1ccccc1 ... 1200

// sample COC(=O)C1CC(=O)N(c2ccc(OCc3ccccc3Cl)cc2)C1 (stereo not given) , its IC90 was 2630

IC90 reported for this molecule `CC1CCN(C(=O)C2CCN(c3nnc(-n4cccc4)s3)CC2)CC1` : 2830

* * *

- System: M. tuberculosis H37Rv growth inhibition, no glycerol
- Measurement description: Mycobacterium tuberculosis H37Rv growth inhibition, absence of glycerol, confirmatory assay (AID 504564)
- Study conditions: 90% growth inhibition concentration
Measurement name: log10(IC90) (log10 of the value in nM)
Kindly note that the scale is log10 and the underlying IC90 is in nM.

Cc1nc(SCC(=O)NC2CCCCC2)[nH]c(=O)c1C ... 2.87
Cc1cccc(-c2oc3ccc(-c4ccc5c(c4)OCO5)cc3c2C#Cc2cncn2C)c1 ... 3.47
S=c1nc[nH]c2nc[nH]c12 ... 3.18
CCC(C)Nc1ccc(NC(C)CC)cc1 (stereo not drawn) ... 3.00

The measured log10(IC90) that `O=C(CSc1nc2ccccc2c(=O)[nH]1)NCc1ccc(Cl)cc1` showed for M. tuberculosis H37Rv growth inhibition, no glycerol is 2.82

GET /values?item= `O=C(/C=C\c1cccs1)N1CCN(Cc2ccc3c(c2)OCO3)CC1` &system= M. tuberculosis H37Rv growth inhibition, no glycerol returns log10(IC90): 2.52

* * *

Catalogue of molecules with associated log10(IC90)
- Tested on: M. tuberculosis H37Rv growth inhibition, no glycerol
- Measurement description: Mycobacterium tuberculosis H37Rv growth inhibition, absence of glycerol, confirmatory assay (AID 504564)
- Study conditions: 90% growth inhibition concentration
Values are log10 of IC90 in nM.

CCOC1OC(=O)C(Cl)=C1Nc1ccccc1C (configuration not stated) ... 3.64
COc1cc(NC(=O)C/C(C)=N/NC(=O)c2ccccn2)c(OC)cc1Cl ... 3.83
Nc1c(C(=O)NC2CCCCC2)nsc1C(=O)OCC(=O)NC1CCCCC1 ... 3.09
O=C(NCC(c1cccs1)N1CCOCC1)c1cc([N+](=O)[O-])cc([N+](=O)[O-])c1 (configuration not stated) ... 2.49
Cc1cccc(/C=C/C(=O)c2ccc([N+](=O)[O-])o2)c1 ... 1.30

Please fill in: log10(IC90) reported for `CCOC(=O)c1ccc(NC(=O)Cn2ncc(Cl)c(Cl)c2=O)cc1` = 2.45

Short answer for `COC(=O)CCc1nc2c(C#N)c(-c3ccc(Cl)cc3)ccn2n1` : log10(IC90) was 3.55

// log10(IC90) value for `O=C1C(Br)=Cc2cccc3cccc1c23` : 2.23

`CCOC(=O)COn1c2c(c3c4no[n+]([O-])c4ccc31)CCCC2` yielded log10(IC90) of 3.48

Item: CCOC(=O)C(C)Sc1ncnc2c1nnn2-c1ccc(F)cc1 (configuration not stated) | log10(IC90): 3.68

The measured log10(IC90) associated with `Cc1ccc2c(c1)c(C1=c3ccccc3=NC1=O)c(O)n2C` reads 3.18

Measured log10(IC90), `CCc1ccc(/C=C2/C(=O)N(C)C(=S)N2CC(=O)OC)s1` : 3.28

For record `CC(=NCc1ccc2c(c1)OCO2)C1=C(O)c2ccccc2C1=O` the listed log10(IC90) is 2.78

Entry under test: `c1ccc(/N=C2\N=C(Nc3ccccn3)c3ccccc32)nc1` . Its log10(IC90) was 1.48

Per the records, this molecule ( `CC(C)NC(=O)c1sc(=S)n2c1[nH]c(=O)c1ccc(C(=O)NCCc3ccc(Cl)cc3)cc12` ) has log10(IC90) equal to 2.63
